# experimental target: Inosine-5'-monophosphate dehydrogenase 2 (Homo sapiens, UniProt P12268)
# protocol text: The compound was tested for it's in vitro inhibitor potency against inosine monophosphate dehydrogenase II (IMPDH II)
value kind: pIC50
// scale note: pIC50 = -log10(conc_M); give the bare number

Query the reported pIC50 for Inosine-5'-monophosphate dehydrogenase 2 (Homo sapiens, UniProt P12268); item: COc1cc(N/C(=N/C#N)Nc2cccc(CNC(=O)OCC3CCOC3)c2)ccc1-c1cnco1 (configuration not stated) 6.96

====

# experimental target: Inosine-5'-monophosphate dehydrogenase 2 (Homo sapiens, UniProt P12268)
# protocol text: In vitro inhibition of Inosine-5'-monophosphate dehydrogenase 2.
value kind: IC50 (nM)
// return numeric value only (unit: nM, not printed)

Dear colleague, I am looking for the recorded IC50 of the following compound: CON/C(=N\c1ccc(-c2cnco2)c(OC)c1)Nc1cccc(C)c1 660

Consider the compound shown here: COc1cc(N/C(=N/c2cccc(CO)c2)NC#N)ccc1-c1cnco1 What is its recorded IC50? 280

Consider the compound shown here: COc1cc(N=C(N)NC(=O)c2ccccc2)ccc1-c1cnco1 What is its recorded IC50? 800

# IC50 lookup, item COc1cc(NC(=NC#N)Nc2ccccc2C)ccc1-c1cnco1 2200

IC50 for CCCCNC(=O)c1cccc(NC(=NC#N)Nc2ccc(-c3cnco3)c(OC)c2)c1 ? 130

Which IC50 value belongs to COc1cc(NC(=N)NC#N)ccc1-c1cnco1 ? 330

====

# experimental target: Inosine-5'-monophosphate dehydrogenase 2 (Homo sapiens, UniProt P12268)
# protocol text: In vitro inhibition of Inosine-5'-monophosphate dehydrogenase 2.
Categories are assigned from the measured IC50 using these intervals: lower range (below 200 nM), middle range (200 nM to below 400 nM), upper range (400 nM or more)

Assign a category based on measured IC50 for CN/C(=N\c1ccc(-c2cnco2)c(OC)c1)Nc1cccc(C)c1 and give only the class name. upper range

Into which category would you place COc1cc(NC(=O)Nc2cccc(C)c2)ccc1-c1cnco1 ? lower range

Hi, small favor: classify CCOC(=O)N=C(Nc1cccc(C)c1)Nc1ccc(-c2cnco2)c(OC)c1 by its IC50 when you get a moment. upper range

Band assignment needed for COc1cc(NC(=NC#N)Nc2cccc(C)c2)ccc1-c1cnco1 please. middle range

Lab log: COc1cc(NC(=NC#N)Nc2cccc(OCCOc3ccccc3)c2)ccc1-c1cnco1 — assign IC50 category middle range

For COc1cc(NC(=NC#N)Nc2cccc(CNC(=O)NCC3CCCO3)c2)ccc1-c1cnco1 (stereo unspecified) , which IC50 bin applies? lower range

Assign a category based on measured IC50 for COc1cc(NC(=NC#N)Nc2ccccc2)ccc1-c1cnco1 and give only the class name. middle range

Which class does COc1cc(N=C(NC(C)=O)Nc2cccc(C)c2)ccc1-c1cnco1 fall in? upper range

Note: place this molecule into its band. Item: COc1cc(N/C(=N/c2cccc(C/N=C(\NC#N)Oc3ccccc3)c2)NC#N)ccc1-c1cnco1 lower range

Record COc1cc(N/C(=N/c2cccnc2)NC#N)ccc1-c1cnco1 — which class? middle range

Tag the class for COc1cc(NC(=NC#N)NCc2cccc(C)c2)ccc1-c1cnco1 upper range

====

Could you please report measured IC50 for the items listed next?
# experimental target: Inosine-5'-monophosphate dehydrogenase 2 (Homo sapiens, UniProt P12268)
# protocol text: In vitro inhibition of Inosine-5'-monophosphate dehydrogenase 2.
Respond with the bare value in nM.

Fill blank: measured IC50 of the compound COc1cc(NC(=NC#N)Nc2cccc(CNC(=O)O[C@H]3CCOC3)c2)ccc1-c1cnco1 is ____. 340

Requested read-out: IC50. Entry: COc1cc(N/C(=N/C#N)Nc2ccc(C)cc2)ccc1-c1cnco1 1500

Reported IC50, compound COc1cc(NC(=NC#N)Nc2ccccn2)ccc1-c1cnco1 : ____ 340
